# assay_summary: AMES test (reverse mutagenicity test), strain TA98, with and without S-9
# Format: cell-based
# experimental_parameters: s9, TA98, with S9, 78 μg/plate; read-out: magnification of the total number of the mutant colony to the control
measured_property: fold induction
Output spec: single numeric token, no unit.

Below, each entry is followed by its recorded fold induction result.
>>> experimental_value("CCCCc1ccc(N=Nc2c(S(=O)(=O)O)cc3cc(S(=O)(=O)O)c(N=Nc4ccc(C5(c6ccc(N=Nc7ccc(O)cc7O)cc6)CCCCC5)cc4)c(N)c3c2O)cc1 [Example 2]")
1.09
>>> experimental_value("Nc1ccc(N=Nc2ccc(C3(c4ccc(N=Nc5c(S(=O)(=O)O)cc6cc(S(=O)(=O)O)c(N=Nc7ccccc7)c(O)c6c5N)cc4)CCCCC3)cc2)c(O)c1 [Example 4]")
1.4

Turning to the following compound.
Asked: Could you share which fold induction value was measured for CCC(C)c1ccc(N=Nc2c(S(=O)(=O)O)cc3cc(S(=O)(=O)O)c(N=Nc4ccc(C5(c6ccc(N=Nc7ccc(N)cc7O)cc6)CCCCC5)cc4)c(N)c3c2O)cc1 (stereo not drawn) [Example 3] ?
Given back: 1.31

Where these numbers come from: patent US5486601A
